Hello, the source for this data is patent US8168667B2, in case you need it.

Biological target: human androgen receptor (hAR) (Homo sapiens)
Experiment: Functional response test: hAR transactivation (luciferase reporter) in HALP2 cells
Type: cell-based
Settings: antagonism; concentration which increases the EC50 of the DHT by a factor of 2, Schild regression; HALP2 cells
Property: KSchild (nM) potency
// note: answer is a bare numeric in nM

INSERT INTO results (molecule, experimental_result) VALUES
  ('N#CCCN1C(=O)N(c2ccc(F)c(C(F)(F)F)c2)C(=O)C1c1ccc(O)cc1 (centres unmarked) [Example 126]', 212.13),
  ('N#CCN1C(=O)N(c2ccc(Cl)c(Cl)c2)C(=O)C1c1ccc(O)cc1 (centres unmarked) [Example 91]', 94.87),
  ('CCCN1C(=O)N(c2ccc(F)c(Cl)c2)C(=O)C1c1ccc(O)cc1 (centres unmarked) [Example 11]', 80);

Provide measured KSchild (nM) potency value, entry: CCOCCCN1C(=O)N(c2ccc(Cl)c(C(F)(F)F)c2)C(=O)C1c1ccc(O)cc1 (centres unmarked) [Example 86]
48.99

Give recorded KSchild (nM) potency. CCCN1C(=O)N(c2ccc(Cl)c(Cl)c2)C(=O)C1c1ccc(O)cc1 (centres unmarked) [Example 55]
34.64

Please list KSchild (nM) potency recorded for the molecule CN1C(=O)N(c2ccc(Cl)c(Cl)c2Cl)C(=O)C1(C)c1ccc(O)cc1 (centres unmarked) [Example 30]
15

Note down KSchild (nM) potency recorded for CCOCCCN1C(=O)N(c2ccc(F)c(C(F)(F)F)c2)C(=O)C1c1ccc(O)cc1 (centres unmarked) [Example 87]
77.46

Supply recorded KSchild (nM) potency for CN1C(=O)N(c2ccc(F)c(F)c2)C(=O)C1c1ccc(O)cc1 (centres unmarked) [Example 46] here.
77.46

* * *

Target: human androgen receptor (hAR) (Homo sapiens, UniProt P10275)
Assay: Functional response test: hAR transactivation (luciferase reporter) in HALP2 cells
Assay type: cell-based
Reported values of KSchild (nM) potency for individual entries
Hey, just the number and the unit after it is fine.

Example entries begin here.
INSERT INTO measurements (compound, experimental_result) VALUES
  ('C#CCN1C(=O)N(c2ccc([N+](=O)[O-])cc2)C(=O)C1c1ccc(O)cc1 (stereo not shown) [Example 73]', '13.77 nM'),
  ('C#CCN1C(=O)N(c2ccc([N+](=O)[O-])c(C(F)(F)F)c2)C(=O)C1c1ccc(O)cc1 (stereo not shown) [Example 71]', '300 nM'),
  ('COc1ccc2c(c1)CCC21C(=O)N(c2ccc(C#N)c(C(F)(F)F)c2)C(=O)N1C (stereo not shown) [Example 165]', '60 nM');

We next turn to a different compound, shown below.
Answer with KSchild (nM) potency of C#CCN1C(=O)N(c2ccc(C#N)c(C(F)(F)F)c2)C(=O)[C@@]1(C)c1ccc(O)cc1 [Example 156.1] measured for human androgen receptor (hAR) (Homo sapiens, UniProt P10275).
6 nM

* * *

Entries and their KSchild (nM) potency
Molecular target: human androgen receptor (hAR) (Homo sapiens, UniProt P10275)
Test: Functional response test: hAR transactivation (luciferase reporter) in HALP2 cells
Type: cell-based
Provide the reading as a plain figure in nM.

See these solved cases before continuing.
INSERT INTO measurements (compound, property, measurement_unit, experimental_result) VALUES
  ('C=CCN1C(=O)N(c2ccc(C#N)c(C(F)(F)F)c2)C(=O)C1c1ccc(O)cc1 (centres unmarked)', 'KSchild (nM) potency', 'nM', 24.49),
  ('C#CCN1C(=O)N(c2ccc(Cl)c(C(F)(F)F)c2)C(=O)C1c1ccc(O)cc1 (centres unmarked)', 'KSchild (nM) potency', 'nM', 24.49);

Output measured KSchild (nM) potency for this item: COc1ccc([C@]2(C)C(=O)N(c3ccc(C#N)c(C(F)(F)F)c3)C(=O)N2C)cc1
5.66

Identify KSchild (nM) potency associated with the compound COCCOCN1C(=O)N(c2ccc(C#N)c(C(F)(F)F)c2)C(=O)C1(C)c1ccc(O)cc1 (centres unmarked)
15

Fill in KSchild (nM) potency for record CC1(c2ccc(O)cc2)C(=O)N(c2ccc(C#N)c(C(F)(F)F)c2)C(=O)N1CC#N (centres unmarked)
8

State its KSchild (nM) potency for this compound: O=C1C(c2ccc(O)cc2)N(Cc2ccc3c(c2)OCO3)C(=O)N1c1ccc([N+](=O)[O-])c(C(F)(F)F)c1 (centres unmarked)
94.87

Supply reported KSchild (nM) potency belonging to this compound: COc1ccc(C2(C)C(=O)N(c3ccc(C#N)c(C(F)(F)F)c3)C(=O)N2C)cc1F (centres unmarked)
40

Provide measured KSchild (nM) potency value, entry: N#Cc1ccc(N2C(=O)C(c3ccc(O)cc3)N(Cc3ccc4c(c3)OCO4)C2=O)cc1C(F)(F)F (centres unmarked)
28.28

Respond only with KSchild (nM) potency recorded for CN1C(=O)N(c2ccc(C#N)c(O)c2)C(=O)[C@@]1(C)c1ccc(O)cc1
30

Provide only the value of recorded KSchild (nM) potency for CC#CCN1C(=O)N(c2ccc(C#N)c(C(F)(F)F)c2)C(=O)C1(C)c1ccc(O)cc1 (centres unmarked)
3

Provide only the value of recorded KSchild (nM) potency for CN1C(=S)N(c2ccc(C#N)c(C(F)(F)F)c2)C(=O)C1(C)c1ccc(O)cc1 (centres unmarked)
4

* * *

Target: human androgen receptor (hAR) (Homo sapiens, UniProt P10275)
Assay: Functional response test: hAR transactivation (luciferase reporter) in HALP2 cells
Type: cell-based
Conditions: antagonism; concentration which increases the EC50 of the DHT by a factor of 2, Schild regression; HALP2 cells
Property: KSchild (nM) potency
Answer format: numeric, nM implied, no suffix.

Check out these entries, answers already filled in.
INSERT INTO results (compound, property, experimental_result) VALUES
  ('O=C1C(c2ccc(O)cc2)N(Cc2ccsc2)C(=O)N1c1ccc(F)c(Cl)c1 (centres unmarked)', 'KSchild (nM) potency', 15),
  ('CC1(c2ccc(O)cc2)C(=O)N(c2ccc(Cl)c(Cl)c2)C(=O)N1CCC#N (centres unmarked)', 'KSchild (nM) potency', 60);

Provide measured KSchild (nM) potency value, entry: CCCN1C(=O)N(c2ccc(F)c(F)c2)C(=O)C1c1ccc(O)cc1 (centres unmarked)
34.64

Specify reported KSchild (nM) potency for the compound shown: O=C1C(c2ccc(O)cc2)N(Cc2ccc3c(c2)OCO3)C(=O)N1c1ccc(F)c(C(F)(F)F)c1 (centres unmarked)
48.99

* * *

# KSchild (nM) potency listing for each entry below
Biological target: human androgen receptor (hAR) (Homo sapiens, UniProt P10275)
Assay: Functional response test: hAR transactivation (luciferase reporter) in HALP2 cells
Assay type: cell-based

Would you please look over these solved cases?
INSERT INTO results (compound, property, experimental_result) VALUES
  ('N#CCCN1C(=O)N(c2ccc([N+](=O)[O-])c(C(F)(F)F)c2)C(=O)C1c1ccc(O)cc1 (stereo not shown) [Example 122]', 'KSchild (nM) potency', '244.95 nM'),
  ('CCC(=O)CN1C(=O)N(c2ccc(C#N)c(C(F)(F)F)c2)C(=O)C1(C)c1ccc(O)cc1 (stereo not shown) [Example 233]', 'KSchild (nM) potency', '2.45 nM'),
  ('CCC1(c2cc(F)c(OC)c(F)c2)C(=O)N(c2ccc(C#N)c(C(F)(F)F)c2)C(=O)N1C (stereo not shown) [Example 167]', 'KSchild (nM) potency', '54.77 nM'),
  ('CN1C(=O)N(c2ccc(C#N)c(C(F)(F)F)c2)C(=O)C12CCc1cc(O)ccc12 (stereo not shown) [Example 181]', 'KSchild (nM) potency', '6 nM'),
  ('CCOCN1C(=O)N(c2ccc(C#N)c(C(F)(F)F)c2)C(=O)C1(C)c1ccc(O)cc1 (stereo not shown) [Example 221]', 'KSchild (nM) potency', '5.66 nM');

Answer with the recorded KSchild (nM) potency for the compound listed here: CC1(c2ccc(O)cc2)C(=O)N(c2ccc(C#N)c(C(F)(F)F)c2)C(=O)N1S(C)(=O)=O (stereo not shown) [Example 243.1]
80 nM

Given the compound N#CCN1C(=O)N(c2ccc(C#N)c(C(F)(F)F)c2)C(=O)C1c1ccc(O)cc1 (stereo not shown) [Example 90] , write its reported KSchild (nM) potency.
282.84 nM

* * *

Target: human androgen receptor (hAR) (Homo sapiens)
Experiment: Functional response test: hAR transactivation (luciferase reporter) in HALP2 cells
Assay type: cell-based
Property: EC50 (nM)
Expressed in nM, but write only the number.

Let me know recorded EC50 for CC1(c2ccc(O)cc2)C(=O)N(c2ccc(Cl)c(Cl)c2)C(=O)N1CCF (stereo not shown) , thanks.
8

* * *

Listed compounds paired with reported EC50
Biological target: human androgen receptor (hAR) (Homo sapiens)
Sequence (P10275 1-920): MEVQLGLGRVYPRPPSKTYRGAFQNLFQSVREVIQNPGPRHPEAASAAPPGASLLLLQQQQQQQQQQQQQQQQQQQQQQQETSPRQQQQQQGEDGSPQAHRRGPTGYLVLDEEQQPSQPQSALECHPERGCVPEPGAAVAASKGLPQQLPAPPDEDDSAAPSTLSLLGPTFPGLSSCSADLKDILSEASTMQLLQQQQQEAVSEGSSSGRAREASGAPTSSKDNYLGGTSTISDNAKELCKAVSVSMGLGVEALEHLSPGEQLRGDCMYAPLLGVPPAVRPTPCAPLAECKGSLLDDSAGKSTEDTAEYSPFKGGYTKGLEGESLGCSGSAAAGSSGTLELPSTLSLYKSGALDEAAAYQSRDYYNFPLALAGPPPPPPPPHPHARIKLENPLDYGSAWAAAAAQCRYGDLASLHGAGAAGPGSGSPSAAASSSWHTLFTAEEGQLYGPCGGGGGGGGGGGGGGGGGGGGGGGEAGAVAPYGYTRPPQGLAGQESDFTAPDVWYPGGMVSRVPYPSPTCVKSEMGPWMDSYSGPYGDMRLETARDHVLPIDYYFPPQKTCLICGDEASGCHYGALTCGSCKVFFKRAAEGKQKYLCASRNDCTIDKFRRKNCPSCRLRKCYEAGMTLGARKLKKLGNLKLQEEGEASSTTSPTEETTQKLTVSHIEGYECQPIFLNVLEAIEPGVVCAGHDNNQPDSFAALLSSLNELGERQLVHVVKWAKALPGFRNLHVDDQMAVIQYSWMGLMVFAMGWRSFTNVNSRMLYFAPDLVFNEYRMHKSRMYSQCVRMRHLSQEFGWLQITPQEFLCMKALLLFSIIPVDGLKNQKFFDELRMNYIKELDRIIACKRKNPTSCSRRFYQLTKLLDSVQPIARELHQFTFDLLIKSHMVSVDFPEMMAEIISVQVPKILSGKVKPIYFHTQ
Assay: Functional response test: hAR transactivation (luciferase reporter) in HALP2 cells
Format: cell-based
Details: agonism; HALP2 cells (HeLa, hAR + ARE-luciferase), 20 hours at 37° C.
Value expressed in nM; do not type the unit.

Previously resolved entries follow.
INSERT INTO results (compound, experimental_result) VALUES
  ('C=CCN1C(=S)N(c2ccc(Cl)c(Cl)c2)C(=O)C1(C)c1ccc(O)cc1 (stereo not drawn) [Example 40]', 3.46),
  ('CCCN1C(=O)N(c2ccc(F)c(F)c2)C(=O)C1c1ccc(O)cc1 (stereo not drawn) [Example 56]', 34.6);

Fill in EC50 for record O=C1C(c2ccc(O)cc2)N(Cc2ccsc2)C(=S)N1c1ccc(Cl)cc1Cl (stereo not drawn) [Example 18]
5660

State its EC50 for this compound: CN1C(=O)N(c2ccc(Cl)c(Cl)c2)C(=O)C1(CF)c1ccc(O)cc1 (stereo not drawn) [Example 184]
4.9

# return recorded EC50 for input C#CCN1C(=O)N(c2ccc(F)c(Cl)c2)C(=O)C1c1ccc(O)cc1 (stereo not drawn) [Example 70]
20

In one line, give reported EC50 of the entry CCOCCCN1C(=O)N(c2ccc(F)c(C(F)(F)F)c2)C(=O)C1c1ccc(O)cc1 (stereo not drawn) [Example 87] .
77.5

Please supply the value of reported EC50 for the item O=C1C(c2ccc(O)cc2)N(Cc2ccsc2)C(=S)N1c1ccc(Cl)c(Cl)c1 (stereo not drawn) [Example 19]
195
